I'd be grateful if you could share measured solubility in DMSO for these entries.
Assay name: solubility of the compound in common solvents
Format: physicochemical
Measurement conditions: 25-30° C.; DMSO

{"columns": ["Compound", "Result"],
 "data": [
  ["CCCCCCCCCCCCCOc1ccc(CN(CCOCCOc2ccc(C(N)c3ccccc3)cc2)C(=O)CC(C)CC(C)(C)C)cc1OCCCCCCCCCCCCC (stereo not shown)", "<1%"],
  ["CCCCCCCCCCCCCOc1cc(C(=O)NCCOCCOc2ccc(C(O)(c3ccccc3)c3ccccc3)cc2)cc(OCCCCCCCCCCCCC)c1OCCCCCCCCCCCCC", "<1%"],
  ["CCCCCCCCCCCCCOc1cc(C(=O)NCCOCCOc2ccc(C(O)(c3ccccc3)c3ccc(Cl)cc3)cc2)cc(OCCCCCCCCCCCCC)c1OCCCCCCCCCCCCC (stereo not shown)", "<1%"]
]}

Read the next record carefully.
q: Please report the measured solubility in DMSO for CCCCCCCCCCCCCOc1ccc(CN(CC(=O)NCCOCCOc2ccc(C(N)c3ccccc3)cc2)C(=O)c2cc(OCCCCCCCCC)c(OCCCCCCCCC)c(OCCCCCCCCC)c2)cc1OCCCCCCCCCCCCC (stereo not shown)
a: <1%

---

Assay name: solubility of the compound in common solvents
Assay type: physicochemical
Measurement conditions: 25-30° C.; DMSO
Readout type: solubility in DMSO

Known results for compounds:
{"columns": ["Compound", "Readout type", "Result"],
 "data": [
  ["CC(C)CCCC(C)CCCC(C)CCCC(C)CCOc1ccc(C(N)c2ccc(OCCC(C)CCCC(C)CCCC(C)CCCC(C)C)cc2)cc1 (centres unmarked) [REF-001, reference compound]", "solubility in DMSO", "<1%"],
  ["CCCCCCCCCCCCOc1cc(C(=O)NCCOCCOc2ccc(C(N)c3ccccc3)cc2)cc(OCCCCCCCCCCCC)c1OCCCCCCCCCCCC (centres unmarked)", "solubility in DMSO", "<5%"],
  ["CC(C)CCCC(C)CCCC(C)CCCC(C)CCOc1cc(COc2ccc(C(N)c3ccccc3)cc2)cc(OCCC(C)CCCC(C)CCCC(C)CCCC(C)C)c1OCCC(C)CCCC(C)CCCC(C)CCCC(C)C (centres unmarked) [REF-002, reference compound]", "solubility in DMSO", "<1%"],
  ["CCCCCCCCCCCCCOc1ccc(CN(CCOCCOc2ccc(C(N)c3ccccc3)cc2)C(=O)c2cc(OCCCCCCCCC)c(OCCCCCCCCC)c(OCCCCCCCCC)c2)cc1OCCCCCCCCCCCCC (centres unmarked)", "solubility in DMSO", "<1%"]
]}

q: Note solubility in DMSO for the compound shown: CCCCCCCCCCCCCOc1ccc(CN(CC(=O)NCCOCCOc2ccc(C(N)c3ccccc3)cc2)C(=O)CC(C)CC(C)(C)C)cc1OCCCCCCCCCCCCC (centres unmarked)
a: <1%

---

Assay name: solubility of the compound in common solvents
Type: physicochemical
Measurement conditions: 25-30° C.; DMSO
Readout type: solubility in DMSO

{"columns": ["Compound", "solubility in DMSO"],
 "data": [
  ["CCCCCCCCCCCCCOc1ccc(CN(CCOCCOc2ccc(C(N)c3ccccc3)cc2)C(C)=O)cc1OCCCCCCCCCCCCC (stereo not drawn)", "<1%"]
]}

Please look at the items below and tell me solubility in DMSO for each one, in order.
1. CCCCCCCCCCCCCOc1cc(C(=O)NCCOCCOc2ccc(C(O)(c3ccccc3)c3ccccc3Cl)cc2)cc(OCCCCCCCCCCCCC)c1OCCCCCCCCCCCCC (stereo not drawn)
2. CCCCCCCCCCCCCOc1cc(C(=O)N(C)CCOc2ccc(C(N)c3ccccc3)cc2)cc(OCCCCCCCCCCCCC)c1OCCCCCCCCCCCCC (stereo not drawn)

a:
1. <1%
2. <1%

---

Assay name: solubility of the compound in common solvents
Assay type: physicochemical
Measurement conditions: 25-30° C.; N,N-dimethylformamide
Readout type: solubility in DMF

{"columns": ["Molecule", "Result"],
 "data": [
  ["CCCCCCCCCCCCCOc1cc(C(=O)NCCOCCOc2ccc(C(O)(c3ccccc3)c3ccccc3)cc2)cc(OCCCCCCCCCCCCC)c1OCCCCCCCCCCCCC", ">40%"],
  ["CCCCCCCCCCCCCOc1ccc(CN(CCOCCOc2ccc(C(N)c3ccccc3)cc2)C(C)=O)cc1OCCCCCCCCCCCCC (stereo not drawn)", ">75%"]
]}

Okay, next one:
q: Dear colleague, please send me the reported solubility in DMF for CC(C)CCCC(C)CCCC(C)CCCC(C)CCOc1cc(COc2ccc(C(N)c3ccccc3)cc2)cc(OCCC(C)CCCC(C)CCCC(C)CCCC(C)C)c1OCCC(C)CCCC(C)CCCC(C)CCCC(C)C (stereo not drawn) [REF-002, reference compound] when you can.
a: >0.1%

---

Could you please report measured solubility in MeOH for the items listed next?
Assay name: solubility of the compound in common solvents
Assay type: physicochemical
Measurement conditions: 25-30° C.; MeOH

{"columns": ["Molecule", "solubility in MeOH"],
 "data": [
  ["CCCCCCCCCCCCCOc1ccc(CN(CC(=O)NCCOCCOc2ccc(C(N)c3ccccc3)cc2)C(=O)CC(C)CC(C)(C)C)cc1OCCCCCCCCCCCCC (stereo not drawn)", "<1%"],
  ["CC(C)CCCC(C)CCCC(C)CCCC(C)CCOc1ccc(C(N)c2ccc(OCCC(C)CCCC(C)CCCC(C)CCCC(C)C)cc2)cc1 (stereo not drawn) [REF-001, reference compound]", "<1%"]
]}

q: Consider the molecule CCCCCCCCCCCCCOc1ccc(CN(CCOCCOc2ccc(C(N)c3ccccc3)cc2)C(=O)CC(C)CC(C)(C)C)cc1OCCCCCCCCCCCCC (stereo not drawn) . State its measured solubility in MeOH.
a: <1%

---

So I've got a bunch of compounds here, and I need their solubility in i-PrOAc values.
Assay name: solubility of the compound in common solvents
Type: physicochemical
Measurement conditions: 25-30° C.; isopropyl acetate

{"columns": ["Compound", "solubility in i-PrOAc"],
 "data": [
  ["CCCCCCCCCCCCCOc1ccc(CN(CC(=O)NCCOCCOc2ccc(C(N)c3ccccc3)cc2)C(=O)c2cc(OCCCCCCCCC)c(OCCCCCCCCC)c(OCCCCCCCCC)c2)cc1OCCCCCCCCCCCCC (stereo not drawn)", ">100%"],
  ["CCCCCCCCCCCCCOc1ccc(CN(CC(=O)NCCOCCOc2ccc(C(N)c3ccccc3)cc2)C(=O)CC(C)CC(C)(C)C)cc1OCCCCCCCCCCCCC (stereo not drawn)", ">40%"],
  ["CC(C)CCCC(C)CCCC(C)CCCC(C)CCOc1cc(COc2ccc(C(N)c3ccccc3)cc2)cc(OCCC(C)CCCC(C)CCCC(C)CCCC(C)C)c1OCCC(C)CCCC(C)CCCC(C)CCCC(C)C (stereo not drawn) [REF-002, reference compound]", ">100%"],
  ["CCCCCCCCCCCCCOc1ccc(CN(CCOCCOc2ccc(C(N)c3ccccc3)cc2)C(C)=O)cc1OCCCCCCCCCCCCC (stereo not drawn)", ">75%"]
]}

Hi team, please reply with solubility in i-PrOAc for each item in this list.
1. CCCCCCCCCCCCCOc1ccc(CN(CCOCCOc2ccc(C(N)c3ccccc3)cc2)C(=O)CC(C)CC(C)(C)C)cc1OCCCCCCCCCCCCC (stereo not drawn)
2. CCCCCCCCCCCCCOc1cc(C(=O)NCCOCCOc2ccc(C(O)(c3ccccc3)c3ccccc3)cc2)cc(OCCCCCCCCCCCCC)c1OCCCCCCCCCCCCC
3. CCCCCCCCCCCCCOc1ccc(CN(CCOCCOc2ccc(C(N)c3ccccc3)cc2)C(=O)c2cc(OCCCCCCCCC)c(OCCCCCCCCC)c(OCCCCCCCCC)c2)cc1OCCCCCCCCCCCCC (stereo not drawn)
4. CC(C)CCCC(C)CCCC(C)CCCC(C)CCOc1ccc(C(N)c2ccc(OCCC(C)CCCC(C)CCCC(C)CCCC(C)C)cc2)cc1 (stereo not drawn) [REF-001, reference compound]
5. CCCCCCCCCCCCCOc1cc(C(=O)N(C)CCOc2ccc(C(N)c3ccccc3)cc2)cc(OCCCCCCCCCCCCC)c1OCCCCCCCCCCCCC (stereo not drawn)
6. CCCCCCCCCCCCOc1cc(C(=O)NCCOCCOc2ccc(C(N)c3ccccc3)cc2)cc(OCCCCCCCCCCCC)c1OCCCCCCCCCCCC (stereo not drawn)

a:
[">100%", ">10%", ">100%", ">100%", ">100%", ">50%"]

Please give solubility in i-PrOAc for each item listed below.
1. CCCCCCCCCCCCCOc1cc(C(=O)NCCOCCOc2ccc(C(O)(c3ccccc3)c3ccccc3Cl)cc2)cc(OCCCCCCCCCCCCC)c1OCCCCCCCCCCCCC (stereo not drawn)
2. CCCCCCCCCCCCCOc1cc(C(=O)NCCOCCOc2ccc(C(O)(c3ccccc3)c3ccc(Cl)cc3)cc2)cc(OCCCCCCCCCCCCC)c1OCCCCCCCCCCCCC (stereo not drawn)

a:
1: >50%; 2: >50%
